Provide the recorded unfolding enthalpy (calorimetric) for the entries that follow.
B1: Lysozyme C, P61626 (parent)
chain: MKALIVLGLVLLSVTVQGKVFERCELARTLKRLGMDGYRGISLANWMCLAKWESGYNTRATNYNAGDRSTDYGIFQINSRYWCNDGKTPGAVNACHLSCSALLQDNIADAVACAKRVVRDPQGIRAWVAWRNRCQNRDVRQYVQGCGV

Variants of: B1
CONDITION LABEL: Homo sapiens; pH 2.8; 68.8 °C; Thermal; DSC; glycine-HCl 50 mM; reversible: yes; structure 1LZ1; whole UniProt chain shown
Answers are plain numbers, in kcal/mol.

> print(dat)
   mutant.name                      endpoint.name  test.result
1        P121G  unfolding enthalpy (calorimetric)          120
2   P89G P121G  unfolding enthalpy (calorimetric)          120

Could you report unfolding enthalpy (calorimetric) for every entry in the following list?
1. D109P
2. V128P
3. P89G
4. A65P

115
120
121
119
